target: YU2 gp120, soluble monomer (HIV-1 isolate YU2 (clade B), UniProt P35961 32-498); assay: BLI
Readings of Kd for the listed binders
State the answer as a number, implicitly in nM.

# count of solved cases: 2
| binder | measure-unit | result-value |
| --- | --- | --- |
| GEBT412, mature IgG (antibody, V domains shown) VH: QVQLVESGGGLVQPGGSLRLACAASGFIFSNHGMHWVRQAPGKGLEWVAVIWYDGSEKYYADSVKDRFTISRDNSKNMLYLQMNNLKLVDTAVYYCARRGCTGSGCYLYYYGLDSWGQGVVVTVSS VL: DIQMTQSPSSLSASVGDTVTITCRASQGISSHLNWFQQKPGKAPKLLIYAATTLQSGVPSRFSGSGSGTDFTLTISSLQPEDFATYYCLQHNFYPYSFGQGTKVEIK | nM | 11 |
| GEBT391, inferred germline (igL) reverted IgG (antibody, V domains shown) VH: EVQLVESGGGLVQPGGSLRLSCAASGFTFSSYGMHWVRQAPGKGLEWVAVIWYDGSKKYYADSVKDRFTISRDNSKNMLYLQMNNLKLEDTAVYYCARRGCTGSGCYLYYYALDSWGQGVVVTVSS VL: DIQMTQSPSSLSASVGDTVTITCRASQGISSYLNWFQQKPGKAPKLLIYAASSLESGVPSRFSGSGSGTEFTLTISSLQPEDFATYYCLQHNFYPYSFGQGTKVEIK | nM | 118 |

We now examine a further binder.
# input State its Kd for this binder: GEBT404, inferred germline (igL) reverted IgG (antibody, V domains shown) VH: EVQLVESGGGLAKPGGSLRLSCAASGFTFSNYWMHWVRQAPGKGLEWISAINSAGSSTYYADSVKGRFTISRENAKNTLYLQMDGLRAEDTAVYYCAKGRIAIFGLVITYFDYWGQGVLVTVSS VL: DIQMTQSPSSLSASVGDRVTITCQASQGITNDLAWYQQKPGETPKLLIYEASSLQSGIPSRFSGSGSGTDFTLTISSLQSEDFATYYCQHYYSTPPTFGGGTKVEIK
# output 56
